- stated-conditions: 293.15 K; 101.33 kPa; Liquid; Vibrating tube method
Below, each of the compounds is paired with its reported mass density value.
Give the quantity in kg/m3, number only.

>>> print(df.to_string())
      smi        metric  readout_units  measured_number
0  CC(C)O  mass density          kg/m3           785.46
1     CCO  mass density          kg/m3           792.05

**Q:** Return mass density (reported value) for this compound: `CO`
**A:** 791.46

**Q:** # return recorded mass density for input `CCCCCCCCCCCC`
**A:** 749.6

###

- measurement-description: refractive index (Na D-line) (dimensionless)
- stated-conditions: 293.15 K; 101.33 kPa; Liquid; Standard Abbe refractometry
metric: refractive index
Please respond with just the number, no unit label.

Example cases with answers are listed next.
      smi  measured_number
0  CC(C)O          1.37709
1      CO          1.32862
2     CCO          1.36162

Consider now this further compound.
**Q:** Tell us which refractive index value is on record for `CCCCCCCCCCCC`
**A:** 1.42155
